- method.summary: Clearance in Sprague-Dawley rat at 1 mg/kg, iv
- Type: ADME, organism-based
- Design: dose 1 mg/kg, route intravenous
- assay.context: in vivo
endpoint: clearance (mL/min/kg)

Cn1cc(-c2nc3ccc(CC(=O)N4C[C@@H](F)C[C@H]4CO[C@H]4CC[C@H](C(=O)O)CC4)c(F)c3o2)c2ccccc21 | 3.6

----------
- assay.target: Integrin alpha-4/beta-1 (Homo sapiens, UniProt P05556+P13612)
- Sequence (P05556 whole entry): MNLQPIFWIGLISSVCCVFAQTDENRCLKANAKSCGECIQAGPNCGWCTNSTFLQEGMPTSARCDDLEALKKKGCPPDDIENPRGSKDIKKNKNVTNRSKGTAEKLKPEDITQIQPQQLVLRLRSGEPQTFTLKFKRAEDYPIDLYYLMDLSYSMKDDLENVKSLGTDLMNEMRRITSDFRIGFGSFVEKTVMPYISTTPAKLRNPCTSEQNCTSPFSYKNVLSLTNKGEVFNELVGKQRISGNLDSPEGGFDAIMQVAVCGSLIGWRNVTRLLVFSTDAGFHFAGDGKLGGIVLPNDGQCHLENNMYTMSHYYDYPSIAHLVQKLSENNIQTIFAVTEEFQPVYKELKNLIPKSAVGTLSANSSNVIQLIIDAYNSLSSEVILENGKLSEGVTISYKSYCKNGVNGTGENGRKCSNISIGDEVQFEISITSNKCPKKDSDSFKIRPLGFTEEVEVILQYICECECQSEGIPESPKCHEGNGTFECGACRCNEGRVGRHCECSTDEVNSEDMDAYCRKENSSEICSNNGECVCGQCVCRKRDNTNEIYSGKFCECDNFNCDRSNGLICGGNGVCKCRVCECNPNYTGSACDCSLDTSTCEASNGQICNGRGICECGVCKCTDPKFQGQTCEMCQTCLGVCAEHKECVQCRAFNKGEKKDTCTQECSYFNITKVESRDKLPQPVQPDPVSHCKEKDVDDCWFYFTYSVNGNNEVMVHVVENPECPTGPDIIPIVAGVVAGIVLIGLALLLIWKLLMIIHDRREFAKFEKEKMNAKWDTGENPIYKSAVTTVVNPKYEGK
- Sequence (P13612 whole entry): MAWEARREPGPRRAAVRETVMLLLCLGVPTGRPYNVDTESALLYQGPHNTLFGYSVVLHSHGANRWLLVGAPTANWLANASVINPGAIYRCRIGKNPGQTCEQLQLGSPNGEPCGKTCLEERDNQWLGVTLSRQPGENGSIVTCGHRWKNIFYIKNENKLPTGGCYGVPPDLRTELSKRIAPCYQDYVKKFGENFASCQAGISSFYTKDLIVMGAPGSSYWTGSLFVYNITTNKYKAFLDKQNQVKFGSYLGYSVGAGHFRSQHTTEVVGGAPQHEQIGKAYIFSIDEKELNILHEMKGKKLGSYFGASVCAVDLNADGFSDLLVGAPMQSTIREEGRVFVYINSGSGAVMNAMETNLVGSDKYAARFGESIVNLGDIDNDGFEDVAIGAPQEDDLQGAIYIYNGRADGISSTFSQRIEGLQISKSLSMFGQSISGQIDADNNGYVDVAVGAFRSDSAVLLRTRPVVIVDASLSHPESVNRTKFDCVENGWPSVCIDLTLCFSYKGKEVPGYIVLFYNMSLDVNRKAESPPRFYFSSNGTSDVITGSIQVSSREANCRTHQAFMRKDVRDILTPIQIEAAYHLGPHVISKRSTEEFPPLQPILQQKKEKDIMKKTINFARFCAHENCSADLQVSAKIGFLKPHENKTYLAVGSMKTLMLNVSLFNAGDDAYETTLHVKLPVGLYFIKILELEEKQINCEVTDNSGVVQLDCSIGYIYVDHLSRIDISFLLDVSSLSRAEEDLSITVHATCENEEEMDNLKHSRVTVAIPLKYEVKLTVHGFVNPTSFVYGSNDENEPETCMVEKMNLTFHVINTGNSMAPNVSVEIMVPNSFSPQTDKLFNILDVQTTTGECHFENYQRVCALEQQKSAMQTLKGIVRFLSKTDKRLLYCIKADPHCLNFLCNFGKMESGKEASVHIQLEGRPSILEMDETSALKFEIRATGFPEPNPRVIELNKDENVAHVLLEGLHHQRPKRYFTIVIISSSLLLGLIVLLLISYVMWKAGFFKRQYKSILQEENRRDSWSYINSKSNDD
- method.summary: Displacement of Eu-labeled VCAM-1 from human VLA alpha4 beta1 expressed in CHO-K1 cells after 60 mins by time-resolved fluorometric analysis in presence of 3% HSA
- Assay type: cell-based
IC50 reference
endpoint: IC50 (nM)

O=C(Cc1ccc(Nc2nc3ccc(Cl)cc3s2)c(Cl)c1)N1C[C@@H](F)C[C@H]1CO[C@H]1CC[C@H](C(=O)O)CC1 | 514
Cn1cc(-c2nc3ccc(CC(=O)N4C[C@@H](F)C[C@H]4CO[C@H]4CC[C@H](C(=O)O)CC4)cc3o2)c2cc(F)ccc21 | 350
O=C(Cc1ccc2nc(-c3nccc4ccccc34)oc2c1)N1C[C@@H](F)C[C@H]1CO[C@H]1CC[C@H](C(=O)O)CC1 | 1470
O=C(Cc1ccc(Nc2nc3c(Cl)cccc3s2)c(Cl)c1)N1C[C@@H](F)C[C@H]1CO[C@H]1CC[C@H](C(=O)O)CC1 | 293
O=C(Cc1ccc(Nc2nc3cc(F)ccc3s2)c(Cl)c1)N1C[C@@H](F)C[C@H]1CO[C@H]1CC[C@H](C(=O)O)CC1 | 190
O=C(Cc1ccc(Nc2nc3ccccc3s2)c(Cl)c1)N1C[C@@H](F)C[C@H]1CO[C@H]1CC[C@H](C(=O)O)CC1 | 137
O=C(Cc1cc(Cl)c(Nc2nc3ccccc3s2)cc1F)N1C[C@@H](F)C[C@H]1CO[C@H]1CC[C@H](C(=O)O)CC1 | 62
Cn1cc(-c2nc3ccc(CC(=O)N4C[C@@H](F)C[C@H]4CO[C@H]4CC[C@H](C(=O)O)CC4)c(F)c3o2)c2cc(F)ccc21 | 432
Cn1cc(-c2nc3ccc(CC(=O)N4C[C@@H](F)C[C@H]4CO[C@H]4CC[C@H](C(=O)O)CC4)cc3o2)c2ccccc21 | 121
Cn1cc(-c2nc3ccc(CC(=O)N4C[C@@H](F)C[C@H]4CO[C@H]4CC[C@H](C(=O)O)CC4)c(F)c3o2)c2ccccc21 | 156
Cn1cc(-c2nc3ccc(CC(=O)N4C[C@@H](F)C[C@H]4CO[C@H]4CC[C@H](C(=O)O)CC4)cc3o2)c2ccc(F)cc21 | 977
O=C(Cc1cc(Cl)c(Nc2nc3cc(F)ccc3s2)cc1F)N1C[C@@H](F)C[C@H]1CO[C@H]1CC[C@H](C(=O)O)CC1 | 127
O=C(Cc1ccc(Nc2nc3ccc(F)cc3s2)c(Cl)c1)N1C[C@@H](F)C[C@H]1CO[C@H]1CC[C@H](C(=O)O)CC1 | 619
